# TARGET: Amylin 3(a) receptor (human calcitonin receptor (CTa) with RAMP-3) on BHK570 cells (human, UniProt P30988 25-474)
# Sequence (P30988 25-474): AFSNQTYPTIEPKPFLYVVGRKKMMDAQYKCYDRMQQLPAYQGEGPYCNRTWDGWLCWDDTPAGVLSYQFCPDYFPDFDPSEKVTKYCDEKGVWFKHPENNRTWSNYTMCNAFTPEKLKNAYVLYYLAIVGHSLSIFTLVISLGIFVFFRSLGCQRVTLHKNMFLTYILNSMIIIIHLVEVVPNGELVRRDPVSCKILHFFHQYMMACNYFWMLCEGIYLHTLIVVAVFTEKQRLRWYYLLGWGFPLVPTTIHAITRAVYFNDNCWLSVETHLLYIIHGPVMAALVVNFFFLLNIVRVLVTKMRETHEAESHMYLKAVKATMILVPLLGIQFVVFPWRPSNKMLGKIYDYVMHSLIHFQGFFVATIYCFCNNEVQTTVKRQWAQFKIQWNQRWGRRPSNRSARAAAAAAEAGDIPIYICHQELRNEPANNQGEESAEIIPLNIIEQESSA
# TEST_DETAILS: cell-based or functional assay
Starred links: 1 amine or outer side, 2 acyl side, 3 side chain; linkers in the order of their positions; H or OH if unused. Positions of bridges follow the written chain, without caps; N, C: chain ends. Non-standard residues stand in square brackets, D forms with d. Groups on a side chain read outwards from the residue. No end group written: not given here. *: point of attachment. C20 diacid = O=C(O)CCCCCCCCCCCCCCCCCCC(=O)*; C18 diacid = O=C(O)CCCCCCCCCCCCCCCCC(=O)*; 17‑carboxyheptanoyl = not defined here; γGlu = O=C(O)[C@H](CCC(=O)[*:2])N[*:1]; AEEA = NCCOCCOCC(=O)O
REPORTED_PROPERTY: Potency luciferase assay (nM)
Note: unit nM is implicit; provide only the numeric part.

-- ask Write down Potency luciferase assay measured for item {17‑carboxyheptanoyl}-KCNTATCATQRLANFLVRSSNNFGPILPPTNVGSNTY-NH2 (disulfide 2-7 (inferred); reading uncertain; also: printed as N-alpha-(17-carboxyheptanoyl)-[Arg18]-pramlintide (1-37)) [N-alpha-(17-carboxyheptanoyl)-[Arg18]-pramlintide (1-37)]
-- reply 0.03

-- ask Write down Potency luciferase assay measured for item {C18 diacid}-EERECNTATCATQRLANFLVHSSNNFGPILPPTNVGSNTY-NH2 (disulfide 5-10 (inferred)) [N-alpha-(17-carboxyheptadecanoyl)-Glu-Glu-Arg-[Glu1]pramlintide (1-37)]
-- reply 0.06

-- ask Write down Potency luciferase assay measured for item CNTATCATQRLANFLVRSSNNLGPVLPPTNVGSNTY (N-alpha-(2-{2-[2-(2-{2-[2-((S)-4-Carboxy-4-{4-carboxy-4-[4-carboxy-4-(17-carboxyheptadecanoylamino)butyrylamino]butyrylamino}butyrylamino) ethoxy}ethoxy]acetylamino)ethoxy}ethoxy]acetyl) on the N-terminal Cys2; disulfide bridge between the two Cys; C-terminal amide)
-- reply 0.9

-- ask Write down Potency luciferase assay measured for item KCNTATCATQRLANFLK([AEEA-AEEA-C20 diacid])HSSNNFGPILPPTNVGSNTY-NH2 (disulfide 2-7 (inferred))
-- reply 0.1

-- ask Write down Potency luciferase assay measured for item {17‑carboxyheptanoyl}-CNTATCATQRLANFLVRSSNNLGPVLPPTNVGSNTY-NH2 (disulfide 1-6 (inferred); reading uncertain; also: printed as N-alpha-(17-carboxyheptanoyl)-[Arg18,Leu23,Val26]-pramlintide (2-37)) [N-alpha-(17-carboxyheptanoyl)-[Arg18,Leu23,Val26]-pramlintide (2-37)]
-- reply 0.1

-- ask Write down Potency luciferase assay measured for item EERECNTATCATQRLANFLVHSSNNFGPILPPTNVGSNTY-NH2 (disulfide 5-10 (inferred); not fully specified (N-terminus))
-- reply 2

-- ask Write down Potency luciferase assay measured for item CNTATCATQRLANFLVRSSNNLGPVLPPTNVGSNTY (N-alpha-[(S)-4-carboxy-4-(17-carboxyheptadecanoylamino)butyryl] on the N-terminal Cys2; disulfide bridge between the two Cys; C-terminal amide)
-- reply 0.03

-- ask Write down Potency luciferase assay measured for item KCNTATCATQRLANFLVHSSK([AEEA-AEEA-C20 diacid])NFGPILPPTNVGSNTY-NH2 (disulfide 2-7 (inferred))
-- reply 0.1

-- ask Write down Potency luciferase assay measured for item {C20 diacid}-EEEECQTATCATQRLANFLVRSSQNLGPVLPPTNVGSNTY-NH2 (disulfide 5-10 (inferred)) [N-alpha-(19-carboxynonadecanoyl)-Glu-Glu-Glu-[Glu1,Gln3,Arg18,Gln21,Leu23,Val26]-pramlintide (1-37)]
-- reply 2

-- ask Write down Potency luciferase assay measured for item ECK(17‑carboxyheptanoyl)TATCATQRLANFLVESSNNFGPILPPTNVGSNTY-NH2 (disulfide 2-7 (inferred)) [N-epsilon3-(17-carboxyheptanoyl)-[Glu1,Lys3,Glu18]-pramlintide (1-37)]
-- reply 0.03

-- ask Write down Potency luciferase assay measured for item KCNTATCATQRLANFLVHSSNNFGK([γGlu-C18 diacid])ILPPTNVGSNTY-NH2 (disulfide 2-7 (inferred)) [N-epsilon25-[(S)-4-carboxy-4-(17-carboxyheptadecanoylamino)butyryl]-[Lys25]-pramlintide (1-37)]
-- reply 0.09

-- ask Write down Potency luciferase assay measured for item CK([γGlu-4‑(16-1H-tetrazol-5-ylhexadecanoylsulfamoyl)butyryl])TATCATQRLANFLVHSSNNFGPILPPTNVGSNTY-NH2 (disulfide 1-6 (inferred))
-- reply 0.04

-- ask Write down Potency luciferase assay measured for item {C20 diacid}-EER[AEEA]ECNTATCATQRLANFLVHSSNNFGPILPPTNVGSNTY-NH2 (disulfide 6-11 (inferred))
-- reply 0.4

-- ask Write down Potency luciferase assay measured for item KCNTATCATQRLANFLVHSSNNFGPILPK(C20 diacid)TNVGSNTY-NH2 (disulfide 2-7 (inferred)) [N-epsilon29-(19-carboxynonadecanoyl)-[Lys29]-pramlintide (1-37)]
-- reply 5

-- ask Write down Potency luciferase assay measured for item KCK([AEEA-AEEA-γGlu-C20 diacid])TATCATQRLANFLVHSSNNFGPILPPTNVGSNTY-NH2 (disulfide 2-7 (inferred))
-- reply 0.3

-- ask Write down Potency luciferase assay measured for item KCNTATCATQRLANFLVHSSNNFGPILPK([AEEA-AEEA-C20 diacid])TNVGSNTY-NH2 (disulfide 2-7 (inferred))
-- reply 0.2

-- ask Write down Potency luciferase assay measured for item KCK([γGlu-C18 diacid])TATCATQRLANFLVPSSNNFGPILPPTNVGSNTY-NH2 (disulfide 2-7 (inferred)) [N-epsilon3-[(S)-4-carboxy-4-(17-carboxyheptadecanoylamino)butyryl]-[Lys3,Pro18]-pramlintide (1-37)]
-- reply 0.7
